All values here come from paper PMC10786891.

# measurementTarget: T1, EsCas13d, nuclease-dead (Eubacterium siraeum, UniProt B0MS50, R295A;H300A;R849A;H854A)
# T1 sequence: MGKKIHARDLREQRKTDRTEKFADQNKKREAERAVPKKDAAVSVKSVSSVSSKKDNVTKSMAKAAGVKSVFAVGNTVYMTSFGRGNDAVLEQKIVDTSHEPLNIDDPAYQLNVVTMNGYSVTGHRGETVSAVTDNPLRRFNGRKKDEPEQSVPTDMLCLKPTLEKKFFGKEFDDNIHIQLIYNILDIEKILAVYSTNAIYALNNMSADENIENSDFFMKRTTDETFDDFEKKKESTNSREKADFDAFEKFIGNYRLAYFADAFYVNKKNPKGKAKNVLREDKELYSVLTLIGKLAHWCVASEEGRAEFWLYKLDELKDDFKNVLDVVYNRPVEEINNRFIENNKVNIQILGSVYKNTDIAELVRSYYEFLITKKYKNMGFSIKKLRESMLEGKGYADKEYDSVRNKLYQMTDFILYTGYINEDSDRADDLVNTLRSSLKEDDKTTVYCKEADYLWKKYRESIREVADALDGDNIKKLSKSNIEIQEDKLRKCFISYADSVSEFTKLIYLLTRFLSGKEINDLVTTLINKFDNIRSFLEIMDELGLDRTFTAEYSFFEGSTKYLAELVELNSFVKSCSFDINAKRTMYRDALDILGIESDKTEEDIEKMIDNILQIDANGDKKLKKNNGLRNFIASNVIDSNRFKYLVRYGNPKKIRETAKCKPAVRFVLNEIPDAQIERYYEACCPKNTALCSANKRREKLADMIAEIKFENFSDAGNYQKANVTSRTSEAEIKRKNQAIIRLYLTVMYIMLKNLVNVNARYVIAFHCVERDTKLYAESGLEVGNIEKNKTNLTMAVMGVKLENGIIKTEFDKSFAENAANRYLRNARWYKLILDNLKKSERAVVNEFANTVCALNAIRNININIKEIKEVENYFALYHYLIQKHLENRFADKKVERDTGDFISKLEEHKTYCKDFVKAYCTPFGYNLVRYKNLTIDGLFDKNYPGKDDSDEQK
# methodDescription: crRNA (strand 1, pre-loaded); Mg2+; 40 mM Tris-HCl pH 7.5, 150 mM NaCl, 6 mM MgCl2, 1 mM DTT, 0.1% Tween-20, 0.2 mg/ml BSA; 25 C; 10 min per concentration, then washed
# recordedConditions: tags: His6-TwinStrep-SUMO cleaved; N-terminal SNAP kept (SNAP-Surface 488); label: 3' end held by stalled T7 RNA polymerase
Field: pKd. Provide a value for each of the binders that follow.
Lab note — pKd values are minus log10 of concentrations in M.

Record request: pKd value, item target 3 insC 3' of 8,insC 3' of 5 (mixed) RNA 1: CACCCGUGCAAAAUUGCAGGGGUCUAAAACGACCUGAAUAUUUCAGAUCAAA RNA 2: GGGAAUGGAUCCACAUCUACGAAUUCGUUUUUGAUCUGAAAUAUCUCACGGUCUGCAGAUCGGAAGAGCACACGU
7.13

Record request: pKd value, item target 1 insC 3' of 10,insA 3' of 3 (mixed) RNA 1: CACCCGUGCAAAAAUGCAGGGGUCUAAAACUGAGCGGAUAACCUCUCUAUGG RNA 2: GGGAAUGGAUCCACAUCUACGAAUUCGUACCAUAGAGAGGUUCAUCCGCUACACCGAGAUCGGAAGAGCACACGU
7.89

Record request: pKd value, item target 1 MT 5'PFS GGC 3'PFS ACA (mixed) RNA 1: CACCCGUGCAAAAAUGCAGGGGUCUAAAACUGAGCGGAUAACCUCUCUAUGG RNA 2: GGGAAUGGAUCCACAUCUACGAAUUCGGCCCAUAGAGAGGUUAUCCGCUCAACAAGAUCGGAAGAGCACACGU
7.70

Record request: pKd value, item target 2 MT 5'PFS CAC 3'PFS CCC (mixed) RNA 1: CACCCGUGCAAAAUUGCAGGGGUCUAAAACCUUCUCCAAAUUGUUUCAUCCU RNA 2: GGGAAUGGAUCCACAUCUACGAAUUCCACAGGAUGAAACAAUUUGGAGAAGCCCAGAUCGGAAGAGCACACGU
7.60

Record request: pKd value, item target 1 G13A,U19G (mixed) RNA 1: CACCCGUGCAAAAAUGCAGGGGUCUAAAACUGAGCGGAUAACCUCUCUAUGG RNA 2: GGGAAUGGAUCCACAUCUACGAAUUCGUACCAGAGAGAAGUUAUCCGCUCACCGAGAUCGGAAGAGCACACGU
7.10

Record request: pKd value, item target 1 MT 5'PFS GCG 3'PFS UCA (mixed) RNA 1: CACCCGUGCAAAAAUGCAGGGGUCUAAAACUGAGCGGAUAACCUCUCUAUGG RNA 2: GGGAAUGGAUCCACAUCUACGAAUUCGCGCCAUAGAGAGGUUAUCCGCUCAUCAAGAUCGGAAGAGCACACGU
7.75

Record request: pKd value, item target 1 insC 3' of 11,insA 3' of 6 (mixed) RNA 1: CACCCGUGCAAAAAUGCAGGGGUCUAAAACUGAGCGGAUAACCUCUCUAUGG RNA 2: GGGAAUGGAUCCACAUCUACGAAUUCGUACCAUAGAGAGGUCUAUCCAGCUCACCGAGAUCGGAAGAGCACACGU
7.33

Record request: pKd value, item target 2 MT 5'PFS GCA 3'PFS UCU (mixed) RNA 1: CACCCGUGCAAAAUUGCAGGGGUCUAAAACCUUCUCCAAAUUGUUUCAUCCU RNA 2: GGGAAUGGAUCCACAUCUACGAAUUCGCAAGGAUGAAACAAUUUGGAGAAGUCUAGAUCGGAAGAGCACACGU
7.57

Record request: pKd value, item target 2 MT 5'PFS AUG 3'PFS UUU (mixed) RNA 1: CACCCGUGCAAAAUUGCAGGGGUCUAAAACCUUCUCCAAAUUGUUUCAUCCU RNA 2: GGGAAUGGAUCCACAUCUACGAAUUCAUGAGGAUGAAACAAUUUGGAGAAGUUUAGAUCGGAAGAGCACACGU
7.60

Record request: pKd value, item target 3 G3U,C6A (mixed) RNA 1: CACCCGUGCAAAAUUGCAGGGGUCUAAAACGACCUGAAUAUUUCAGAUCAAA RNA 2: GGGAAUGGAUCCACAUCUACGAAUUCGUUUUUGAUCUGAAAUAUUAAGUUCUGCAGAUCGGAAGAGCACACGU
7.40

Record request: pKd value, item target 1 G12U,C22U (mixed) RNA 1: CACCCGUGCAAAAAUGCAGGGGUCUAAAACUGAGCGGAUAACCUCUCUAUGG RNA 2: GGGAAUGGAUCCACAUCUACGAAUUCGUAUCAUAGAGAGUUUAUCCGCUCACCGAGAUCGGAAGAGCACACGU
7.66

Record request: pKd value, item target 1 C2A,C4U (mixed) RNA 1: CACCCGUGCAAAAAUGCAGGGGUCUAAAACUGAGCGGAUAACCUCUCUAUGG RNA 2: GGGAAUGGAUCCACAUCUACGAAUUCGUACCAUAGAGAGGUUAUCCGUUAACCGAGAUCGGAAGAGCACACGU
7.47
